pKd by entry:
Target: T1, CDK9/Cyclin T1 (Homo sapiens, UniProt P50750)
T1 construct: His
T1 sequence (P50750 whole entry): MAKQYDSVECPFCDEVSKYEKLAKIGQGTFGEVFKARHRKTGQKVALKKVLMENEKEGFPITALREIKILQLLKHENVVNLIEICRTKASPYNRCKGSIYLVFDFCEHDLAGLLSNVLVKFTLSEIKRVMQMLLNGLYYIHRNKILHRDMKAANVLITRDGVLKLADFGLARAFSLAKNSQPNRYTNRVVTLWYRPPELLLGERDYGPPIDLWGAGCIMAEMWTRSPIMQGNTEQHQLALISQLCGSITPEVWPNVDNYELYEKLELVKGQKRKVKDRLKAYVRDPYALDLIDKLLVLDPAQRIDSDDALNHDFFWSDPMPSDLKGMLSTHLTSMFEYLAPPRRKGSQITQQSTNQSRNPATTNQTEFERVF
T1 sequence (O60563 whole entry partner): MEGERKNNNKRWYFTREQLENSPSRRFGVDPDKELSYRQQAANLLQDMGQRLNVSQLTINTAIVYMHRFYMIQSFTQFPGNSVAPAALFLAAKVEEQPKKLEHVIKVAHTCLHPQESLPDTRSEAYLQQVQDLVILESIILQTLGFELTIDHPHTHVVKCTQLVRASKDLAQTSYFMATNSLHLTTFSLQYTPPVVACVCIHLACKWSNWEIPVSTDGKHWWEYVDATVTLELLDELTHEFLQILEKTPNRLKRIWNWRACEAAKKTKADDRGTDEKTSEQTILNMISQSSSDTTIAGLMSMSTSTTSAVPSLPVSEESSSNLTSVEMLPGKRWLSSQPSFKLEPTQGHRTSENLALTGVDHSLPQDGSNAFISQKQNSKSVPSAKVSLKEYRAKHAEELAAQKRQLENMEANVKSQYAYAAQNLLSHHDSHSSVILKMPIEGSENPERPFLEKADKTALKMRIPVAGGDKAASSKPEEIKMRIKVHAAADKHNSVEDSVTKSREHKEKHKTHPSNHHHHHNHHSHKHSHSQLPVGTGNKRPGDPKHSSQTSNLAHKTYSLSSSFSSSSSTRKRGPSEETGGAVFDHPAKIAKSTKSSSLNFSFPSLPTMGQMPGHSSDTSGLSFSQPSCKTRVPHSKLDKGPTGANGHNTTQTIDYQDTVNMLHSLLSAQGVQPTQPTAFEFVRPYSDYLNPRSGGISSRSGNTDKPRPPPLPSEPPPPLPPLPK
Assay: LanthaScreen Eu Kinase Binding Assay, CDK9/Cyclin T1
Conditions: tracer 236, read-out: CDK9/Cyclin T1 (activity range), Kd
Experimental: This protocol describes how the LanthaScreen Eu Kinase Binding Assay was performed to determine dissociation constants (Kd) of compounds of general formula (I) and CDK/Cyclin complexes. […] Binding of the tracer to the kinase is detected using a Eu-labeled antibody. […] The compounds of general formula (I) summarized in Table 1 were diluted from a 10 mM DMSO stock solution 1:10 in a total volume of 15 μL DMSO. […] Positive and negative controls were calculated from at least 8 different sample wells. […]
pKd: −log10 of the molar value.

molecule="NS(=O)(=O)Cc1cccc(Nc2ncnc(N3CCCn4nccc43)n2)c1 [Compound B47]" result="> 7.00"
molecule="COC[C@H]1CCN1c1ncnc(Nc2cccc(CS(N)(=O)=O)c2)n1 [Compound B35]" result="6.00 to 7.00"
molecule="NS(=O)(=O)Cc1cccc(Nc2ncnc(N3CCc4ncccc4C3)n2)c1 [Compound B38]" result="> 7.00"

// next entry
Looking up CC(C)(C)OC(=O)NCC1CCCCN1c1ncnc(Nc2cccc(CS(N)(=O)=O)c2)n1 (racemic) [Compound B7] , I see its pKd listed as < 5.00
